system: HCV replicon 1A; experiment: microbe, parasite or virus in culture; type: cell-based, Hepatitis C virus (HCV); details: HCV replicon 1A; Replicon Assay A
reportedMetric: IC50 (pM)

>  <compound>
COC(=O)N[C@H](C(=O)N1CCC[C@H]1c1ncc(-c2cc(F)c3c(c2)OC(c2cc(C)c(C)s2)n2c-3cc3cc(-c4cnc([C@@H]5C[C@@H](F)CN5C(=O)[C@@H](NC(=O)OC)C(C)C)[nH]4)ccc32)[nH]1)C(C)C (single isomer, unassigned) [Compound 516]

>  <reportedMetric>
IC50

>  <numericResult>
1.91

$$$$
>  <compound>
COC(=O)NC(C(=O)N1CCC[C@H]1c1ncc(-c2ccc3c(c2)cc2n3C(c3ccc(C4CCCC4)s3)Oc3cc(-c4cnc([C@@H]5CCCN5C(=O)[C@@H](NC(=O)OC)C(C)C)[nH]4)cc(F)c3-2)[nH]1)C1C[C@@H](C)O[C@@H](C)C1 (single isomer, unassigned) [Compound 657]

>  <reportedMetric>
IC50

>  <numericResult>
2.5

$$$$
>  <compound>
COCc1ccc(C2Oc3cc(-c4cnc([C@@H]5CCCN5C(=O)[C@@H](NC(=O)OC)C(C)C)[nH]4)cc(F)c3-c3cc4cc(-c5c[nH]c([C@@H]6CCCN6C(=O)[C@@H](NC(=O)OC)C(C)C)n5)ccc4n32)s1 (single isomer, unassigned) [Compound 512]

>  <reportedMetric>
IC50

>  <numericResult>
2.82

$$$$
>  <compound>
COC(=O)N[C@H](C(=O)N1CCC[C@H]1c1ncc(-c2cc(F)c3c(c2)OC(c2scc4c2OCCO4)n2c-3cc3cc(-c4cnc([C@@H]5CCCN5C(=O)[C@@H](NC(=O)OC)C(C)C)[nH]4)ccc32)[nH]1)C(C)C (single isomer, unassigned) [Compound 523]

>  <reportedMetric>
IC50

>  <numericResult>
3.2

$$$$

---

IC50 overview
tested on: HCV replicon 1AY93H; test: microbe, parasite or virus in culture; type: cell-based, Hepatitis C virus (HCV); conditions: read-out: 1A Y93H IC50; replicon 1AY93H; Replicon Assay A

>  <compound>
CCc1ccc(C2Oc3cc(-c4cnc(C5CCCN5C(=O)C(NC(=O)OC)C5C[C@@H](C)O[C@@H](C)C5)[nH]4)ccc3-c3cc4c(F)c(-c5cnc([C@@H]6CCCN6C(=O)[C@@H](NC(=O)OC)C(C)C)[nH]5)ccc4n32)s1 (single isomer, unassigned) [Compound 359]

>  <assayedTarget>
HCV replicon 1AY93H

>  <IC50>
82.6 pM

$$$$
>  <compound>
CCc1ccc(C2Oc3cc(-c4cnc([C@@H]5CCCN5C(=O)[C@@H](NC(=O)OC)C(C)C)[nH]4)cc(F)c3-c3cc4cc(-c5cnc([C@@H]6C[C@H]7C[C@H]7N6C(=O)C(NC(=O)OC)C6CCOC(C)(C)C6)[nH]5)ccc4n32)s1 (single isomer, unassigned) [Compound 202]

>  <assayedTarget>
HCV replicon 1AY93H

>  <IC50>
490 pM

$$$$
>  <compound>
COC(=O)N[C@H](C(=O)N1CCC[C@H]1c1ncc(-c2ccc3c(c2)OC(c2ccc(C4CC4)s2)n2c-3cc3cc(-c4cnc([C@@H]5CCCN5C(=O)[C@@H](NC(=O)OC)C5CCOCC5)[nH]4)ccc32)[nH]1)C(C)C (single isomer, unassigned) [Compound 334]

>  <assayedTarget>
HCV replicon 1AY93H

>  <IC50>
159 pM

$$$$
>  <compound>
COC(=O)NC(C(=O)N1CCC[C@H]1c1ncc(-c2ccc3c(c2)cc2n3C(c3ccc(C4CC4)s3)Oc3cc(-c4cnc([C@@H]5C[C@@H](F)CN5C(=O)[C@@H](NC(=O)OC)C(C)C)[nH]4)cc(F)c3-2)[nH]1)C(C)(C)F (single isomer, unassigned) [Compound 112]

>  <assayedTarget>
HCV replicon 1AY93H

>  <IC50>
230 pM

$$$$
>  <compound>
COC(=O)NC(C(=O)N1CCC[C@H]1c1ncc(-c2ccc3c(c2)cc2n3C(c3cc(C)c(C)s3)Oc3cc(-c4cnc([C@@H]5CCCN5C(=O)[C@@H](NC(=O)OC)C5CCOCC5)[nH]4)cc(F)c3-2)[nH]1)C(C)(C)F (single isomer, unassigned) [Compound 131]

>  <assayedTarget>
HCV replicon 1AY93H

>  <IC50>
3830 pM

$$$$
>  <compound>
CCc1ccc(C2Oc3cc(-c4cnc([C@@H]5CCCN5C(=O)[C@@H](NC(=O)OC)C(C)C)[nH]4)cc(F)c3-c3cc4cc(-c5cnc([C@@H]6CCCN6C(=O)C(NC(=O)OC)C6C[C@@H](C)O[C@@H](C)C6)[nH]5)ccc4n32)s1 (single isomer, unassigned) [Compound 145]

>  <assayedTarget>
HCV replicon 1AY93H

>  <IC50>
5220 pM

$$$$
>  <compound>
COC(=O)N[C@H](C(=O)N1CCC[C@H]1c1ncc(-c2cc(F)c3c(c2)OC(c2ccc(C4CC4)s2)n2c-3cc3cc(-c4cnc([C@@H]5CCCN5C(=O)[C@@H](NC(=O)OC)C5CCOCC5)[nH]4)ccc32)[nH]1)C1CCOCC1 (single isomer, unassigned) [Compound 279]

>  <assayedTarget>
HCV replicon 1AY93H

>  <IC50>
210 pM

$$$$
>  <compound>
COC(=O)NC(C(=O)N1CCC[C@H]1c1ncc(-c2cc(F)c3c(c2)OC(c2ccc(C4CC4)s2)n2c-3cc3cc(-c4cnc([C@@H]5CCCN5C(=O)[C@@H](NC(=O)OC)C5CCOCC5)[nH]4)ccc32)[nH]1)C(C)(C)F (some centres unmarked) [Compound 168]

>  <assayedTarget>
HCV replicon 1AY93H

>  <IC50>
2 pM

$$$$
>  <compound>
COC(=O)NC(C(=O)N1CCC[C@H]1c1ncc(-c2ccc3c(c2)cc2n3C(c3ccc(C4CC4)s3)Oc3cc(-c4cnc([C@@H]5CCCN5C(=O)[C@@H](NC(=O)OC)C(C)C)[nH]4)cc(F)c3-2)[nH]1)C1CCCCO1 (single isomer, unassigned) [Compound 340]

>  <assayedTarget>
HCV replicon 1AY93H

>  <IC50>
20.7 pM

$$$$
>  <compound>
COC(=O)N[C@H](C(=O)N1CCC[C@H]1c1ncc(-c2cc(F)c3c(c2)OC(c2csc4ccccc24)n2c-3cc3cc(-c4cnc([C@@H]5CCCN5C(=O)[C@@H](NC(=O)OC)C(C)C)[nH]4)ccc32)[nH]1)C(C)C (single isomer, unassigned) [Compound 324]

>  <assayedTarget>
HCV replicon 1AY93H

>  <IC50>
4890 pM

$$$$
>  <compound>
COC(=O)N[C@H](C(=O)N1CCC[C@H]1c1ncc(-c2ccc3c(c2)OC(c2cc4ccccc4s2)n2c-3cc3cc(-c4cnc([C@@H]5CCCN5C(=O)[C@@H](NC(=O)OC)C5CCOCC5)[nH]4)ccc32)[nH]1)C1CCOCC1 (single isomer, unassigned) [Compound 262]

>  <assayedTarget>
HCV replicon 1AY93H

>  <IC50>
52 pM

$$$$
>  <compound>
COC(=O)NC(C(=O)N1CCC[C@H]1c1ncc(-c2ccc3c(c2)cc2n3C(c3ccc(C(C)C)s3)Oc3cc(-c4cnc([C@@H]5CCCN5C(=O)[C@@H](NC(=O)OC)C(C)C)[nH]4)cc(F)c3-2)[nH]1)C1C[C@@H](C)O[C@@H](C)C1 (single isomer, unassigned) [Compound 235]

>  <assayedTarget>
HCV replicon 1AY93H

>  <IC50>
3870 pM

$$$$
>  <compound>
CCc1ccc(C2Oc3cc(-c4cnc([C@@H]5CCCN5C(=O)[C@@H](NC(=O)OC)C(C)C)[nH]4)cc(F)c3-c3cc4cc(-c5cnc([C@@H]6C[C@H]7C[C@H]7N6C(=O)C(NC(=O)OC)C6CCOC(C)(C)C6)[nH]5)ccc4n32)s1 (single isomer, unassigned) [Compound 200]

>  <assayedTarget>
HCV replicon 1AY93H

>  <IC50>
2 pM

$$$$
>  <compound>
COC(=O)N[C@H](C(=O)N1CCC[C@H]1c1ncc(-c2cc(F)c3c(c2)OC(c2ccc(CCF)s2)n2c-3cc3cc(-c4cnc([C@@H]5CCCN5C(=O)[C@@H](NC(=O)OC)C(C)C)[nH]4)ccc32)[nH]1)C(C)C (single isomer, unassigned) [Compound 43]

>  <assayedTarget>
HCV replicon 1AY93H

>  <IC50>
120 pM

$$$$

---

IC50 overview
test system: HCV replicon 1AY93H; experiment: microbe, parasite or virus in culture; format: cell-based, Hepatitis C virus (HCV); conditions: read-out: 1A Y93H IC50; replicon 1AY93H; Replicon Assay A

>  <compound>
COC(=O)NC(C(=O)N1CCC[C@H]1c1ncc(-c2cc(F)c3c(c2)OC(c2ccc(C4CC4)s2)n2c-3cc3cc(-c4cnc([C@@H]5CCCN5C(=O)[C@@H](NC(=O)OC)C(C)C)[nH]4)ccc32)[nH]1)C1C[C@@H](C)O[C@@H](C)C1 (single isomer, unassigned) [Compound 186]

>  <IC50 / pM>
530

$$$$
>  <compound>
COC(=O)NC(C(=O)N1CCC[C@H]1c1ncc(-c2ccc3c(c2)cc2n3C(c3ccc(C4CC4)s3)Oc3cc(-c4cnc([C@@H]5CCCN5C(=O)[C@@H](NC(=O)OC)C(C)C)[nH]4)cc(F)c3-2)[nH]1)C1CCOC(C)(C)C1 (single isomer, unassigned) [Compound 221]

>  <IC50 / pM>
180

$$$$
>  <compound>
[2H]C(C)(C)C(NC(=O)OC)C(=O)N1CCC[C@H]1c1ncc(-c2cc(F)c3c(c2)OC(c2ccc(C4CC4)s2)n2c-3cc3cc(-c4cnc([C@@H]5CCCN5C(=O)[C@@H](NC(=O)OC)C(C)C)[nH]4)ccc32)[nH]1 (single isomer, unassigned) [Compound 32]

>  <IC50 / pM>
1420

$$$$
>  <compound>
COCC(C)(C)c1ccc(C2Oc3cc(-c4cnc([C@@H]5CCCN5C(=O)[C@@H](NC(=O)OC)C(C)C)[nH]4)cc(F)c3-c3cc4cc(-c5cnc([C@@H]6CCCN6C(=O)[C@@H](NC(=O)OC)C(C)C)[nH]5)ccc4n32)s1 (single isomer, unassigned) [Compound 399]

>  <IC50 / pM>
14.5

$$$$
